- Tested on: MAPK phosphorylation
- Procedure text: Western MAPK cell-based phosphorylation assay, NCI H1975
- Test settings: Homo sapiens, 10 μM, 6 hours, EGF stimulation
Test readout: inhibition at 10 µM

Some solved cases for reference:
• COCCNc1nc(-c2nccn2C)nc2sc(-c3cccc(OC)c3Cl)c(-c3ccc(OC)cc3)c12 [drawing 420] = 76 to 100%
• CO[C@@H]1CCC(Nc2nc(-c3nccn3C)nc3sc(-c4ccn(C)n4)c(-c4ccccc4)c23)C1 (stereo partly shown) [drawing 407] = 26 to 50%
• COCCNc1nc(-c2nccn2C)nc2sc(-c3cccc(OC)c3)c(-c3ccc(OC)cc3)c12 [drawing 419] = 76 to 100%
• CO[C@H]1CCC(Nc2nc(-c3nccn3C)nc3sc(-c4ccn(C)n4)c(-c4ccccc4)c23)C1 (stereo partly shown) [drawing 406] = 76 to 100%
• COCCNc1nc(-c2nccn2C)nc2sc(-c3ccccc3Cl)c(-c3ccc(OC)cc3)c12 [drawing 418] = 0%

inhibition at 10 µM recorded for this compound, COCCNc1nc(-c2cn(C)cn2)nc2sc(-c3ccccc3Cl)c(-c3ccc(OC)cc3)c12 [drawing 422] , is 76 to 100%

// recorded inhibition at 10 µM for COCCNc1nc(-c2nccn2C)nc2sc(-c3cccc(OC)c3Cl)c(-c3ccccc3)c12 [drawing 425] : 76 to 100%

* * *

- Measured target: KRas G12D mutant (Homo sapiens, UniProt P01116, G12D)
- Construct: fused on or other part: His tag, used for capture on nickel-coated plates
- Procedure text: Ras GTP binding domain inhibition assay (Cy3-GTP/Cy5-GTP competition)
- Test settings: at 20 μM, with SOS; read-out: KRas G12D mutant + SOS: % inh.
Reported values of inhibition at 20 µM for individual entries

Worked set:
• COc1c(O)nc(-c2ccccn2)nc1Oc1cccnc1 [drawing 937] = 51 to 75%
• Cc1c(-c2ccn(C)n2)sc2nc(-c3nccn3C)nc(NCCCC(=O)N(C)C)c12 [drawing 1052] = 76 to 100%
• Oc1nc(-c2cn(-c3ccccc3)cn2)nc2c(-c3ccccn3)csc12 [drawing 982] = 1 to 25%
• COCCNc1nc(-c2nccn2C)nc2sc(-c3cccc(OC)c3Cl)c(-c3ccc(OC)cc3)c12 [drawing 1009] = 51 to 75%
• Oc1nc(-c2cn3ccccc3n2)nc2c(-c3ccccn3)csc12 [drawing 951] = 1 to 25%

Then this compound:
Item COCC(C)Nc1nc(-c2nccn2C)nc2sc(-c3ccn(C)n3)c(-c3ccc(OC)cc3)c12 (centres unmarked) [drawing 1004] was tested on KRas G12D mutant (Homo sapiens, UniProt P01116, G12D); the reported inhibition at 20 µM is 1 to 25%

* * *

- System: BxPC3 pancreatic cancer cell line
- Procedure text: Cell proliferation assay (DAPI)
- Assay type: cell-based
- Test settings: Homo sapiens, BXPC-3
Test readout: IC50

- COCC(C)Nc1nc(-c2nccn2C)nc2sc(-c3ccn(C)n3)c(-c3ccccc3)c12 (stereo not shown) [drawing 544]: 750 to 1000 nM

# IC50 (compound: COCC1CCN(c2nc(-c3nccn3C)nc3sc(-c4ccn(C)n4)c(-c4ccccc4)c23)C1 (stereo not shown) [drawing 550] ) is 750 to 1000 nM

Entry CO[C@H]1CCC(Nc2nc(-c3nccn3C)nc3sc(-c4ccn(C)n4)c(-c4ccccc4)c23)C1 (stereo partly shown) [drawing 548] , IC50 reported as 500 to 749 nM

response.value for COCCCNc1nc(-c2nccn2C)nc2sc(-c3ccn(C)n3)c(-c3ccccc3)c12 [drawing 542] (field: IC50) = 750 to 1000 nM

* * *

- Measured target: Rho-A (Homo sapiens)
- Procedure text: Ras GTP binding domain inhibition assay (Cy3-GTP/Cy5-GTP competition)
- Test settings: at 20 μM, without SOS
Test readout: Rho-A: % inh.

* COc1cccc(-c2sc3nc(-c4nccn4C)nc(NC4CCC(OC)C4)c3c2-c2ccccc2)c1F (stereo not shown) [drawing 1020] | A (1-25% inhibition)
* COc1cccc(-c2sc3nc(-c4nccn4C)nc(N4CCC(OC)C4)c3c2-c2ccccc2)c1F.Cl (stereo not shown) [drawing 973] | A (1-25% inhibition)

* * *

- System: KRas G12C mutant
- Procedure text: Ras GTP binding domain inhibition assay (Cy3-GTP/Cy5-GTP competition)
- Set-up: species or system human
- Test settings: 20 μM; with SOS
Test readout: KRas G12C mutant + SOS: % inh.

- O=C(c1nc(-c2ccccn2)nc(O)c1O)N1CCc2ccccc2C1 [drawing 832]: B (26-50% inhibition)
- O=C(NC1CCCC1)c1nc(-c2ccccn2)nc(O)c1O [drawing 812]: B (26-50% inhibition)

* * *

- Measured target: KRas G12D mutant (Homo sapiens, UniProt P01116, G12D)
- Construct: fused on or other part: His tag, used for capture on nickel-coated plates
- Procedure text: Ras GTP binding domain inhibition assay (Cy3-GTP/Cy5-GTP competition)
- Test settings: at 20 μM, with SOS; read-out: KRas G12D mutant + SOS: % inh.
Test readout: inhibition at 20 µM

Field inhibition at 20 µM (KRas G12D mutant (Homo sapiens, UniProt P01116, G12D)), entry COc1c(F)cccc1-c1sc2nc(-c3nccn3C)nc(NC3CCC(OC)C3)c2c1-c1ccccc1 (centres unmarked) [drawing 1021] : 1 to 25%

Entry COCCn1ccnc1-c1nc(O)c2scc(-c3ccc(OCC(C)C)nc3)c2n1 [drawing 1033] ; assay system KRas G12D mutant (Homo sapiens, UniProt P01116, G12D); inhibition at 20 µM recorded at 51 to 75%

Entry Cn1ccc(-c2sc3nc(-c4nccn4C)nc(N[C@H]4C[C@@H](O)C4)c3c2-c2ccccc2)n1 [drawing 1043] under KRas G12D mutant (Homo sapiens, UniProt P01116, G12D) had inhibition at 20 µM of 0%

The observed inhibition at 20 µM for Cn1ccc(-c2sc3nc(-c4nccn4C)nc(O)c3c2-c2ccccc2)n1 [drawing 1039] when tested with KRas G12D mutant (Homo sapiens, UniProt P01116, G12D) stands at 26 to 50%

KRas G12D mutant (Homo sapiens, UniProt P01116, G12D) inhibition at 20 µM of Cn1ccc(-c2sc3nc(-c4nccn4C)nc(NCC4CCOC4)c3c2-c2ccccc2)n1 (centres unmarked) [drawing 996] is 1 to 25%

// assay KRas G12D mutant (Homo sapiens, UniProt P01116, G12D), entry Cc1cnc(-c2nc(O)c3scc(-c4ccccn4)c3n2)n1C [drawing 943] , inhibition at 20 µM value = 1 to 25%

Given the molecule Cn1ccc(-c2sc3nc(-c4nccn4C)nc(N[C@@H]4CC[C@H](O)C4)c3c2C2=CC=CCC=C2)n1 (racemic) and test system KRas G12D mutant (Homo sapiens, UniProt P01116, G12D), the measured inhibition at 20 µM is 0%

COc1ccc(-c2c(-c3cccc(OC)c3F)sc3nc(-c4nccn4C)nc(N4CCC(OC)C4)c23)cc1 (centres unmarked) [drawing 941] tested on KRas G12D mutant (Homo sapiens, UniProt P01116, G12D) gave inhibition at 20 µM: 51 to 75%

KRas G12D mutant (Homo sapiens, UniProt P01116, G12D) data for COCCNc1nc(-c2nccn2C)nc2sc(-c3ccccc3Cl)c(-c3ccc(OC)cc3)c12 [drawing 1011] ; its inhibition at 20 µM: 76 to 100%

Entry Cn1ccnc1-c1nc(O)c2scc(-c3ccccn3)c2n1 [drawing 988] ; assay system KRas G12D mutant (Homo sapiens, UniProt P01116, G12D); inhibition at 20 µM recorded at 51 to 75%

Readout inhibition at 20 µM for COc1ccc(Oc2nc(-c3ccccn3)nc(O)c2OC)cc1 [drawing 950] , test system KRas G12D mutant (Homo sapiens, UniProt P01116, G12D), was 26 to 50%

The observed inhibition at 20 µM for CO[C@H]1C[C@@H](Nc2nc(-c3nccn3C)nc3sc(-c4ccn(C)n4)c(-c4ccccc4)c23)C1.Cl [drawing 1040] when tested with KRas G12D mutant (Homo sapiens, UniProt P01116, G12D) stands at 51 to 75%

Fill in: KRas G12D mutant (Homo sapiens, UniProt P01116, G12D) inhibition at 20 µM for COC1CCN(c2nc(-c3nccn3C)nc3sc(-c4ccc(CO)cc4)c(-c4ccccc4)c23)C1 (centres unmarked) [drawing 954] = 51 to 75%

Short answer on KRas G12D mutant (Homo sapiens, UniProt P01116, G12D) for CCN(CC)C(=O)c1nc(-c2nccn2C)nc(O)c1O [drawing 964] , inhibition at 20 µM: 1 to 25%

Form: item COc1ccc(-c2c(-c3ccn(C)n3)sc3nc(-c4nccn4C)nc(N4CCC(OC)C4)c23)cc1 (centres unmarked) [drawing 1003] ; test system KRas G12D mutant (Homo sapiens, UniProt P01116, G12D); inhibition at 20 µM: 1 to 25%

Given the molecule COCCNc1nc(-c2nccn2C)nc2sc(-c3cccc(OC)c3)c(-c3ccc(OC)cc3)c12 [drawing 1010] and test system KRas G12D mutant (Homo sapiens, UniProt P01116, G12D), the measured inhibition at 20 µM is 76 to 100%

Entry COCCNC(=O)c1sc2nc(-c3nccn3C)nc(N[C@H]3C[C@@H](OC)C3)c2c1-c1ccccc1 [drawing 1056] , tested on KRas G12D mutant (Homo sapiens, UniProt P01116, G12D), has a reported inhibition at 20 µM of 51 to 75%

Test item CCOC1CCN(c2nc(-c3nccn3C)nc3sc(-c4ccn(C)n4)c(-c4ccccc4)c23)C1 (centres unmarked) ; KRas G12D mutant (Homo sapiens, UniProt P01116, G12D); reported inhibition at 20 µM was 26 to 50%

Noted inhibition at 20 µM for COCCNc1nc(-c2cn(C)cn2)nc2sc(-c3cc(OC)ccc3Cl)c(-c3ccc(OC)cc3)c12 [drawing 930] , tested on KRas G12D mutant (Homo sapiens, UniProt P01116, G12D): 26 to 50%

Reported inhibition at 20 µM (KRas G12D mutant (Homo sapiens, UniProt P01116, G12D)) for entry CO[C@H]1C[C@H](Nc2nc(-c3nccn3C)nc3sc(-c4ccn(C)n4)c(-c4ccccc4)c23)C1 [drawing 1041] is 51 to 75%

Source listed as patent US20250296938A1.
